conditions: 298.15 K; 101.33 kPa; Liquid; Vibrating tube method
measurement_name: mass density (kg/m3)

INSERT INTO results (compound, measurement_name, reading_unit, recorded_number) VALUES
  ('CC(=O)N(C)C [N,N-dimethylethanamide]', 'mass density', 'kg/m3', 936.14),
  ('CCCCNCCCC [dibutylamine]', 'mass density', 'kg/m3', 755.7),
  ('CN(C)C=O [dimethylformamide]', 'mass density', 'kg/m3', 943.78),
  ('CCCNCCC [dipropylamine]', 'mass density', 'kg/m3', 733.37),
  ('CCCCCCN [1-hexanamine]', 'mass density', 'kg/m3', 760.16),
  ('CCCCN [1-butanamine]', 'mass density', 'kg/m3', 732.18);
